Attribution: paper PMC9230201

- ASSAY DETAILS: Urinary excretion of phenolic metabolites after intake of the GCPE nutraceutical
- TEST SETTINGS: week 0, interval 0–3 h
Assign a class from recorded Amount excreted in urine, 0- 3 h; defined classes: interval 1: < 0.09 µmol; interval 2: ≥ 0.09 µmol and < 0.2 µmol; interval 3: ≥ 0.2 µmol

INSERT INTO measurements (molecule, discrete_label) VALUES
  ('O=C(O)CCc1ccc(O)c(OS(=O)(=O)O)c1 [DHCA-3′-sulfate]', 'interval 3'),
  ('COc1cc(CCC(=O)O)ccc1O [DHFA]', 'interval 1'),
  ('COc1cc(/C=C/C(=O)NCC(=O)O)ccc1O [Feruloylglycine]', 'interval 3'),
  ('O=C(O)Cc1ccc(O)c(O)c1 [3′,4′-Dihydroxyphenylacetic acid]', 'interval 2'),
  ('O=C(CCc1ccc(O)c(O)c1)OC1C(O)CC(O)(C(=O)O)CC1O (centres unmarked) [4-Dihydrocaffeoylquinic acid]', 'interval 1'),
  ('COc1cc(/C=C/C(=O)O[C@@H]2C[C@@](O)(C(=O)O)C[C@@H](O)[C@@H]2O)ccc1O [3-Feruloylquinic acid]', 'interval 2'),
  ('COc1ccc(CCC(=O)O)cc1OC [Dihydrodimethoxycinnamic acid, 3-(3′,4′-Dimethoxyphenyl)propanoic acid]', 'interval 1'),
  ('O=C(CCc1ccc(O)c(O)c1)OC1CC(O)(C(=O)O)CC(O)C1O (centres unmarked) [5-Dihydrocaffeoylquinic acid]', 'interval 1'),
  ('COc1ccc(C=CC(=O)O)cc1OS(=O)(=O)O [iFA-3′-sulfate, 4′-Methoxycinnamic acid-3′-sulfate]', 'interval 3'),
  ('COc1cc(CCC(=O)OC2CC(O)(C(=O)O)CC(O)C2O)ccc1O (centres unmarked) [5-Dihydroferuloylquinic acid]', 'interval 2'),
  ('COc1ccc(CCC(=O)O)cc1O [DHiFA]', 'interval 3'),
  ('COc1cc(C=CC(=O)O)ccc1OS(=O)(=O)O [FA-4′-sulfate, 3′-Methoxycinnamic acid-4′-sulfate]', 'interval 3'),
  ('O=C(O)/C=C/c1ccc(O)c(O)c1 [CA, 3′,4′-Dihydroxycinnamic acid]', 'interval 2'),
  ('COc1cc(CCC(=O)O)ccc1O[C@@H]1O[C@H](C(=O)O)[C@@H](O)[C@H](O)[C@H]1O [DHFA-4′-glucuronide]', 'interval 2'),
  ('COc1cc(CCC(=O)OC2C(O)CC(O)(C(=O)O)CC2O)ccc1O (centres unmarked) [4-Dihydroferuloylquinic acid]', 'interval 1');

----------
- ASSAY DETAILS: Fecal excretion of phenolic metabolites after intake of the GCPE nutraceutical
- TEST SETTINGS: feces; 0 h; week 8
Outcome label depends on Amount of fecal metabolite excreted at 0 h relative to 0.003 µmol/g: at/above gives Condition met, below gives Condition not met.

INSERT INTO results (compound, discrete_label) VALUES
  ('COc1cc(CCC(=O)O)ccc1O', 'Condition met'),
  ('O=C(O)CCc1ccc(O)c(O)c1 [DHCA, 3-(3′,4′-Dihydroxyphenyl)propanoic acid]', 'Condition met'),
  ('O=C(O)/C=C/c1ccc(O)cc1 [CoA, 4′-Hydroxycinnamic acid]', 'Condition met'),
  ('COc1cc(/C=C/C(=O)O[C@@H]2C[C@@](O)(C(=O)O)C[C@@H](O)[C@@H]2O)ccc1O [5-Feruloylquinic acid]', 'Condition not met'),
  ('COc1cc(/C=C/C(=O)O[C@@H]2C[C@@](O)(C(=O)O)C[C@@H](O)[C@@H]2O)ccc1O [3-Feruloylquinic acid]', 'Condition not met');
